Biological target: ΔF508-CFTR (Homo sapiens, UniProt P13569, DEL508-508)
Construct: host or cells: CFBE41o-, doxycycline-inducible
Sequence (P13569 with tags, fused parts or gaps DEL508-508): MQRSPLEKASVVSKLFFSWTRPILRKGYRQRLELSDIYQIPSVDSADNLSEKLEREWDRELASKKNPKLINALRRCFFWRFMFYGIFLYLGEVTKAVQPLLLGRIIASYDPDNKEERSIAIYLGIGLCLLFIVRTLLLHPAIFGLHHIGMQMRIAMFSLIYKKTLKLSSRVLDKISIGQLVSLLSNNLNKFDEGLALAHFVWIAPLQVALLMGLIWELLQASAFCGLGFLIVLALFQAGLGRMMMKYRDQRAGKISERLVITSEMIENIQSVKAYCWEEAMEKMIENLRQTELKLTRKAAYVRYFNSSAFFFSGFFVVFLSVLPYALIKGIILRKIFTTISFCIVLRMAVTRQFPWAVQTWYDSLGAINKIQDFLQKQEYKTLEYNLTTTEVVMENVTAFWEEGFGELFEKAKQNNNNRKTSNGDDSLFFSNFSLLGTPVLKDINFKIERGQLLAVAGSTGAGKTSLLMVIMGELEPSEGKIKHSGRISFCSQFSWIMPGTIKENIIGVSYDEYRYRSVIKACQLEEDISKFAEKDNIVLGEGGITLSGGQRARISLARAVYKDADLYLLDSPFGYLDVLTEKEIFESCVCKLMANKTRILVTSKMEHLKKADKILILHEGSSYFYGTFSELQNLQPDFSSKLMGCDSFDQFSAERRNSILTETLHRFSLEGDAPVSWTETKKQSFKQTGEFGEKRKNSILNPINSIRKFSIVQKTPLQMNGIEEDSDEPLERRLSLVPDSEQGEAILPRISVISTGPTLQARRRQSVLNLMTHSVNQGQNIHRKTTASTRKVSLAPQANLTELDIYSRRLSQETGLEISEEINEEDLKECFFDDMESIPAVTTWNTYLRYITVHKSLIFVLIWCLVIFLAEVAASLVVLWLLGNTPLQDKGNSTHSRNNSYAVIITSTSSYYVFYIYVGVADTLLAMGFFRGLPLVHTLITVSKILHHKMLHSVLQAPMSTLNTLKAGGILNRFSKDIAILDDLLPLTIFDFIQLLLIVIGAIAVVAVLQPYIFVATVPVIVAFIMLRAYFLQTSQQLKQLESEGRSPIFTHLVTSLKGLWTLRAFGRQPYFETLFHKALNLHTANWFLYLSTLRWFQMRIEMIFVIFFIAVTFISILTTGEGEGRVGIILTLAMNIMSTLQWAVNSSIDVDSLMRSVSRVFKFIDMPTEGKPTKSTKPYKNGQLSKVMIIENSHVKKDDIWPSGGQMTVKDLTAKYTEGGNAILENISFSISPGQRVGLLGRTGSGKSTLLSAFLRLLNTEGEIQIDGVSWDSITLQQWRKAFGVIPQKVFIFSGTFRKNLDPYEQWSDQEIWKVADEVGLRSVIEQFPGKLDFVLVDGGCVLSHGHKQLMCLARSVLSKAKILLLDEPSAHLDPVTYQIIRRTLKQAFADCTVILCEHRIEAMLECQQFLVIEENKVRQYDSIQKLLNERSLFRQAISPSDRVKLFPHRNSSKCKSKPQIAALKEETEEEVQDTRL
Assay: CFTR cell surface levels using HRP-tagged ΔF508-CFTR expressing CFBE cells, intrinsic corrector capacity
Assay type: cell-based
Design: concentration or dose not given beside the values
Conditions: HRP-tagged ΔF508-CFTR expressing CFBE41o- cells; compound alone (intrinsic corrector capacity); 20 hours at 33° C.
So I've got a bunch of compounds here, and I need their % Activation values.
Answers are plain numbers, in %.

Worked set:
{"columns": ["Compound", "Test Result"],
 "data": [
  ["CCOC(=O)N1CCN(c2cc(C(=O)NS(C)(=O)=O)nc3c2c(C(C)C)nn3-c2ccc(F)cc2)CC1", 404.9],
  ["COCCS(=O)(=O)NC(=O)c1cc(N2CCC(COC)CC2)c2c(C3CCC3)nn(-c3ccc(F)cc3)c2n1", 399.2],
  ["Cc1cccc(-n2nc(C3CCC3)c3c(N4CCC(N5CCOCC5)CC4)cc(C(=O)NS(=O)(=O)N(C)C)nc32)c1", 288.1],
  ["CC(C)c1nn(-c2cccc(N(C)C)c2)c2nc(C(=O)NS(C)(=O)=O)cc(-c3cnc(N(C)C)nc3)c12", 296.45],
  ["Cc1nn(-c2ccccc2)c2nc(C(=O)NS(C)(=O)=O)cc(N3CCCCC3)c12", 153.85]
]}

Would you be so kind as to report % Activation for each listed record?
1. O=C(NS(=O)(=O)N1CCC(F)C1)c1cc(N2CCC(N3CCOCC3)CC2)c2c(C3CCC3)nn(-c3ccc(F)cc3)c2n1 (stereo not shown)
2. O=C(NS(=O)(=O)C1CC1)c1cc(N2CCC(N3CCOCC3)CC2)c2c(C3CCC3)nn(-c3ccccc3)c2n1

Ans.
[214.5, 393.3]

----------
Target: CFTR ΔF508 (Homo sapiens, UniProt P13569, DEL508-508)
Construct: bronchial epithelial cells isolated from CF patients homozygous for the CFTR ΔF508 mutation; McGill University; Asterand; University of North Carolina hAEC-CF; host or cells: primary human bronchial epithelial cells from CF patients homozygous for ΔF508, differentiated at air-liquid interface
Sequence (P13569 with tags, fused parts or gaps DEL508-508): as above
Test: Chronic TECC assay, primary bronchial epithelial cells of CF patients homozygous for CFTR ΔF508 (corrector, co-corrector and potentiator)
Format: cell-based
Details: chronic TECC; test compound at 1 μM; AUC = full area under the curve upon forskolin stimulation
I'd appreciate it if you marked entries true when % Activity at 1 μM (AUC**) is lower than 300% and false when it is not.

Qu. Bench note: check whether "COC1CCN(c2cc(C(=O)NS(=O)(=O)C3CCOCC3)nc3c2c(C2CCC2)nn3-c2ccccc2)CC1" shows % Activity at 1 μM (AUC**) below 300%
Ans. false

----------
Biological target: CFTR ΔF508 (Homo sapiens, UniProt P13569, DEL508-508)
Construct: bronchial epithelial cells isolated from CF patients homozygous for the CFTR ΔF508 mutation; McGill University; Asterand; University of North Carolina hAEC-CF; host or cells: primary human bronchial epithelial cells from CF patients homozygous for ΔF508, differentiated at air-liquid interface
Assay: Chronic TECC assay, primary bronchial epithelial cells of CF patients homozygous for CFTR ΔF508 (corrector, co-corrector and potentiator)
Format: cell-based
Conditions: chronic TECC; test compound at 1 μM; AUC = full area under the curve upon forskolin stimulation
Endpoint Name: % Activity at 1 μM (AUC**) (%)
Numbers only, in %.

{"columns": ["Compound", "Endpoint Name", "Test Result"],
 "data": [
  ["CC(C)Oc1nn(C2CCCCC2)c2nc(C(=O)NS(=O)(=O)N(C)C)cc(-c3ccc(N4CCN(C5CC5)CC4)cc3)c12 [Compound 559]", "% Activity at 1 μM (AUC**)", 231.6378],
  ["O=C(NS(=O)(=O)NC1CCOCC1)c1cc(N2CCC(N3CCOCC3)CC2)c2c(C3CCC3)nn(-c3ccc(F)cc3)c2n1 [Compound 578]", "% Activity at 1 μM (AUC**)", 936.6667],
  ["CS(=O)(=O)NC(=O)c1cc(C2CCN(C3CCOCC3)CC2)c2c(C3CCC3)nn(-c3ccc(F)cc3)c2n1 [Compound 599]", "% Activity at 1 μM (AUC**)", 116.6667],
  ["CN(C)S(=O)(=O)NC(=O)c1cc(N2CCC(N3CCN(C4CC4)CC3)CC2)c2c(C3CCC3)nn(-c3ccc(F)cc3)c2n1 [Compound 583]", "% Activity at 1 μM (AUC**)", 613.3333],
  ["CN(C(=O)c1cc(N2CCC(N3CCOCC3)CC2)c2c(C3CCC3)nn(-c3ccc(F)cc3)c2n1)S(C)(=O)=O [Compound 654]", "% Activity at 1 μM (AUC**)", 293.3333]
]}

Moving on to the next compound.
Qu. So what's the measured % Activity at 1 μM (AUC**) for this one? O=C(NS(=O)(=O)N1CCOCC1)c1cc(N2CCC(N3CCOCC3)CC2)c2c(C3CCC3)nn(-c3ccc(F)cc3)c2n1 [Compound 487]
Ans. 340
